# assay.summary: Solubility in pH 7.4 PBS at 0.5 mg in 16 ul solution sonicated for 5 mins followed by incubation at room temperature for 30 mins
# Format: physicochemical
parameter: solubility at 0.5 h (mM)
Reply numerically in mM, unit not repeated.

[Q] Entry O=C(/C=C/c1ccc(O)cc1)c1ccc(O)cc1O has what solubility at 0.5 h?
[A] 125

---

# assay.summary: Solubility in pH 7.4 PBS at 0.5 mg in 32 ul solution sonicated for 5 mins followed by incubation at room temperature for 30 mins
# Assay type: physicochemical
parameter: solubility at 0.5 h (mM)
Reply numerically in mM, unit not repeated.

[Q] Entry O=C(/C=C/c1ccc(O)cc1)c1ccc(O)cc1O [ISOLIQUIRITIGENIN] has what solubility at 0.5 h?
[A] 62.5
